target: UniProtKB O14757; test: Chk1 autophosphorylation (pS296) by immunoblotting and densitometry, HT29 cells; format: cell-based; parameters: Thermal response profile of Chk1 in HT29 cells detected by immunofluorescent imaging with the EP691Y antibody; endogenous in cells; host or cells: HT29; conditions: HT29, 10 min, same dilution series and conditions as HCIF-CETSA (Fig 8B); read-out: IC50, S296 phosphorylation
readout.type: pIC50
Remember the convention: pIC50 equals -log10 of concentration in molar.

Task: System UniProtKB O14757. Read-out pIC50. Item N#Cc1cc2c(cn1)[nH]c1ncc(-c3ccc(CN4CCCCC4)cc3)cc12 [GNE-900, reference compound] . Report value.
Result: 6.30

====

Target: Chk1 (Homo sapiens, UniProt O14757)
Experiment: HCIF-CETSA (CETSA by immunofluorescence), low well volume heating, HT29 cells
Format: cell-based
Set-up: Thermal response profile of Chk1 in HT29 cells detected by immunofluorescent imaging with the EP691Y antibody; endogenous in cells; host or cells: HT29
Conditions: HT29, 10 min pre-incubation, 25 μL media, heated to 46°C (Fig 6A); read-out: EC50, reduction in Chk1 nuclear immunofluorescence
Method: Compounds were serially diluted in DMSO to 200-times the final assay concentration then diluted 1:200 in media (without FCS). The cell media was removed and replaced with 25 μL of compound in media and incubated at 37°C, 5% CO2 for 10 minutes. The plate was sealed with an aluminum plate seal and heated by floating in a pre-heated water bath (Grant Instruments W14) for 3 minutes. […] Plates were imaged on an Operetta high content imager using a 20x objective and analyzed using Harmony software.
readout.type: EC50 (nM)
Numbers only here, please. The scale is nM.

Task: Answer with reported EC50 of CN(C)CC(C)(C)COc1ccc2[nH]c(-c3cc(NC(=O)c4cnn(Cc5ccccc5)c4)c[nH]c3=O)cc2c1 [V158411]
Result: 1900

====

Molecular target: Chk1 (Homo sapiens)
Sequence (O14757 1-476): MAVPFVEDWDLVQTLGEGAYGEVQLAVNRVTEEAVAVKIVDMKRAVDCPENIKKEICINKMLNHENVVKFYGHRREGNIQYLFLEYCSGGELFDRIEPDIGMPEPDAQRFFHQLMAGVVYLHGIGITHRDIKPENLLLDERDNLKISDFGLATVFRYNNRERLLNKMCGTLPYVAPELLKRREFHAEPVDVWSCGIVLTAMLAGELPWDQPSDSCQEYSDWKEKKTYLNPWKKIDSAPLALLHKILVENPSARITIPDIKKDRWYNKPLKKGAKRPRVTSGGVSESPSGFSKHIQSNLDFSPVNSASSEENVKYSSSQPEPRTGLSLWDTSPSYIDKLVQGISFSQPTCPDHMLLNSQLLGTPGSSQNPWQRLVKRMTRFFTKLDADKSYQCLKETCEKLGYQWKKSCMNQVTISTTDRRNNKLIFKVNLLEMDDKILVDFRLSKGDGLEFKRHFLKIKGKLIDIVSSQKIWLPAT
Test: HCIF-CETSA (CETSA by immunofluorescence), low well volume heating, HT29 cells
Assay type: cell-based
Parameters: Thermal response profile of Chk1 in HT29 cells detected by immunofluorescent imaging with the EP691Y antibody; endogenous in cells; host or cells: HT29
Details: HT29, 0–40 μM inhibitor, 10 min, 25 μL media, 49°C (Fig 8A); read-out: EC50, decrease in nuclear Chk1 fluorescence following heating
readout.type: EC50

Task: // fetch EC50 given entry CN(C)CC(C)(C)COc1ccc2[nH]c(-c3cc(NC(=O)c4cnn(Cc5ccccc5)c4)c[nH]c3=O)cc2c1 [V158411]
Result: 2 µM

Task: Return EC50 for the following molecule: N#Cc1cc2c(cn1)[nH]c1ncc(-c3ccc(CN4CCCCC4)cc3)cc12 [GNE-900, reference compound]
Result: 1.3 µM

All figures here come from paper PMC5884524.
